Tested on: OVCAR-8 ovarian
Test: NCI-60 one-dose screen, 48 h (100 = growth as untreated, 0 = no growth, -100 = all killed)
Conditions: 10 µM unless noted
Compounds without any hit were thinned out: in the full panel of roughly 83,000, 20% have a hit. The source made the active and inactive calls. The calls were made as follows: active = growth percent below 10; inactive = the rest.
growth values for the compounds below.
measureName: growth

* C=CC(=O)Nc1cccc(-c2nc(SC)nc(NCCc3ccc(OC)c(OC)c3)c2C#N)c1 | 30.7% (inactive)
* CSc1nc(-c2cccc(NC(=O)CCl)c2)c(C#N)c(=O)n1C | 72.6% (inactive)
* O=c1c2c3c(sc2nc(N/N=C/c2cn(-c4ccccc4)nc2-c2ccc(Cl)cc2)n1Cc1ccccc1)CCCC3 | 98.2% (inactive)
* COc1cc2c(cc1-c1c(C)noc1C)ncc1nc(C3CCOCC3)n([C@@H](C)COC(F)F)c12 | 45% (inactive)
* O=c1c(F)cn(Cc2ccccc2CCl)c(=O)n1Cc1ccccc1CCl | -20.3% (active)
* C=CC(=O)Nc1cccc(Nc2nc(SC)nc(-c3cccc([N+](=O)[O-])c3)c2C#N)c1 | 43.4% (inactive)
* O=C(/C=C/c1ccc(C(F)(F)F)cc1)Nc1ccc(C=C2c3ccccc3C(=O)c3ccccc32)cc1 | 55.7% (inactive)
* C=C(C)C1CC(O)C2(C)CCCC3C2C1CC(C)C3(C)CC/C(C)=C/C(O)C1CCC(=O)c2c(OC)cc(OC)cc21 (stereo not given) | 41.6% (inactive)
* COC(=O)c1ccc(NC(=O)c2ccc(-c3cccc([N+](=O)[O-])c3)o2)cc1 | 103% (inactive)
* Cc1cc(C)nc(SC2=C(Nc3ccc(O)cc3)C(=O)N(Cc3ccccc3)C2=O)n1 | 111% [40 µM] (inactive)
* Cn1cc(-c2nonc2-c2c[nH]c3ccccc23)c2cccnc21 | 47.8% (inactive)
* NC1=C(Cl)C(=O)c2ccc(S(N)(=O)=O)cc2C1=O | -53.9% (active)
* COc1ccc(-c2cc(Nc3ccnc(N4CCOCC4)n3)on2)cc1 | 37.2% (inactive)
* O=C1Nc2cc(-c3ccc(O)cc3)ccc2/C1=C/c1ccc[nH]1 | 12.3% (inactive)
* Cn1ncc2c(=O)nc3c(-c4ccccc4)n[nH]n3c21 | 99.8% (inactive)
* COc1cc2nc(N3CCCC3)nc(NCCc3ccccc3)c2cc1OC | 65.6% (inactive)
* CN(C)CCN1C(=O)c2cccc3c(N)ccc(c23)C1=O | 18.1% (inactive)
* NC(=O)c1cc(I)ccc1NC(=O)/C=C/c1ccccc1Cl | 31.3% (inactive)
* Cc1c(/C=C/[N+](=O)[O-])ccc2c1[nH]c1ccccc12 | 94.1% (inactive)
* O=C(N/N=C/c1c[nH]c2ccccc12)c1cc(-c2ccccc2)on1 | 102% (inactive)
* CC1SC(c2ccc(N(C)C)cc2)N(NC(=O)C(O)(c2ccccc2)c2ccccc2)C1=O (stereo not given) | 77.4% (inactive)
* CC(=O)OCCC/C(=C/c1cc2ccccc2c2ccccc12)[N+](=O)[O-] | -100% (active)
* Nc1nc2ccc3[nH]ncc3c2c2c1CCCC2 | 7.6% (active)
* O=C1C=C(O)C(=O)C(CC2=C(O)C(=O)C=C(O)C2=O)=C1O | 105% (inactive)
* N#CCCN=Nc1c(O)[nH]c2ccc([N+](=O)[O-])cc12 | 102% (inactive)
* Cc1cc(N2CCCC2)nc(NC2CCCC(Nc3ccnc4cc(Cl)ccc34)C2)n1 (stereo not given) | -69.8% (active)
* COc1cc2nnc3c4cccnc4[nH]c3c2cc1OC | -15.2% (active)
* Nc1n[nH]c2cc(F)c([C@@H]3Nc4ccc5[nH]ncc5c4[C@H]4C5CCC(C5)[C@@H]34)cc12 (stereo not given in full) | 19.5% (inactive)
* COc1ccc2[nH]cc(-c3noc(C(=O)c4cn(C)c5ccc(F)cc45)n3)c2c1 | 93.6% (inactive)
* COc1cc(-c2nc3ccccc3[nH]2)ccc1OCc1nnc(-c2ccc(CC(C)C)cc2)o1 | 92.2% (inactive)
* O=c1ccccc(-c2ccc(-c3ccco3)cc2)c1O | 12.7% (inactive)
* CSc1ccc(SC2c3ccc(C)cc3Oc3nc(N)c(C#N)c(N)c32)cc1 (stereo not given) | -92% (active)
* CCn1c(O)c(/C=N/NC(=O)C(C)c2ccc(CC(C)C)cc2)sc1=S (stereo not given) | 22.6% (inactive)
* O=C1CC[C@H](c2ccc(O)c3c2C(=O)[C@@H]2O[C@@H]2C3=O)c2cccc(O)c21 | 43.5% (inactive)
* CC[C@H]1OC(=O)[C@H](C)[C@@H](O[C@H]2C[C@@](C)(OC)[C@@H](O)[C@H](C)O2)[C@H](C)[C@@H](O[C@@H]2O[C@H](C)C[C@H](N(C)C)[C@H]2O)[C@](C)(O)C[C@H](C)CN(C)[C@H](C)[C@@H](O)[C@]1(C)O | 115% (inactive)
* Cc1ccc2c(C(C[N+](=O)[O-])c3ccccc3)c(-c3ccccc3)[nH]c2c1 (stereo not given) | 29.6% [9.5 µM] (inactive)
* Cn1c(=O)c2c(nc3n(-c4ccc(Cl)cc4Cl)c(Sc4nc(-c5ccccc5)c(C#N)c(=O)[nH]4)cn23)n(C)c1=O | 34.2% (inactive)
* CC(C)(CCCN=C(N)Nc1ccc(Cl)cc1)c1ccc(F)cc1 | 87.3% (inactive)
* CNc1ccc(-c2cc(=O)oc3ccc(Cl)cc23)cc1 | 16.6% (inactive)
* Cc1cc2c3ccccc3ccc2[n+]2ccccc12 | -28.5% (active)

// data source = PubChem BioAssay (NCI)
